assay: Intact half-life during simulated gastric fluid (SGF) digestion; conditions: SGF pH 1.5, pepsin:polypeptide 1:20 w/w, 37° C.; produced in E. coli unless otherwise noted
This section presents molecules with their documented SGF Half-life (t½) values.
measurement-type: SGF Half-life (t½) (s)

1) SEQID-00343: nutritive polypeptide (protein, Glycine max) MATLIAPSHHSRVEDAEALRNAFKGWGADDKAIIAILGHRNVHQRQEIRKAYEEIYQEDLIKRLESEISGDFERAMYRWMLQPADRDAVLVNVAIKNGTKDYHVIAEIACVLSAEELLAVRRAYHRRYKCSLEEDVAANTTGNLRQLLVGLVTSYRYEGDEINVKFSQTEANVLHESVKEKKGNSEEVIRILTTRSKTQLVATFNRYRDEHGISISKKLLDQTSDDFHKVLHTAIRCINDHKKYYEKVLRNAVKKFGTDEDGLSRVIVTRAEKDLKDIKELYYKRNSVHLEDEVSKETSGDYKKFLLTLLGK	18
2) SEQID-00511: protein of the 168 nutritive polypeptide library (protein, Arthrospira platensis C1, protein of the 168 nutritive polypeptide library) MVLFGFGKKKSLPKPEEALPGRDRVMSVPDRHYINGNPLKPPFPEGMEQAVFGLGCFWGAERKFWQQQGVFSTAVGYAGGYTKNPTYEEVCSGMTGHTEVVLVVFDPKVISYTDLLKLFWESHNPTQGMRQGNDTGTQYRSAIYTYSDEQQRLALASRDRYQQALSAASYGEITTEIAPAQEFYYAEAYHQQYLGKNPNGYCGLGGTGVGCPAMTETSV	18
